Biological target: Cytochrome P450 3A4 (Homo sapiens)
Assay: Cytochrome panel assay with activity outcomes
Conditions: recombinant CYP, pro-luciferin dealkylation, luminescence, p450-cyp3a4; series mostly up to 57.1 µM
In all, about 16,000 compounds went through this assay and about 5,100 (32%) were called active. About 25% were inconclusive and are not listed. The call rests on the fitted dose curve; in most records, active means well fitted curve in the direction sought with a large enough effect; inconclusive means small, poorly fitted or top-dose-only effect, or effect the other way; inactive means no such curve, though single readings can be large or run the other way. This is one part of the list.
Pick from active, inactive when you respond.

Check out these entries, answers already filled in.
Cc1cc(C(=O)NNC(=S)NC(C)c2ccccc2)c2ccccc2n1 (stereo unspecified); active
O=C(Nc1cccc2ccccc12)c1ccccc1; active
CCOC(=O)c1cnc2cc(-c3ccc(C(C)(C)C)cc3)nn2c1N; inactive

Returns: the outcome recorded for COc1cccc(C(CC(=O)Nc2cccc3ccccc23)NC(=O)c2ccccc2)c1 (stereo unspecified) in this assay.
active

Returns: the outcome recorded for `CCN=C1NN=C(c2ccc(C)cc2)CS1` in this assay.
active

Returns: the outcome recorded for `Cc1[nH]nc(-c2ccc(O)cc2O)c1-c1ccc(Cl)cc1` in this assay.
active
